assay: Octanol/water partition coefficient; assay type: physicochemical
READOUT: logP

COMPOUND: O=c1[nH]nnc2nn(Cc3ccccc3C(F)(F)F)cc12 [Compound 3]
logP: 1.74

COMPOUND: Cc1ccccc1Cn1cc2c(=O)[nH]nnc2n1 [Compound 4]
logP: 0.74

COMPOUND: O=c1[nH]nnc2nn(Cc3ccc(Cl)cc3)cc12 [Compound 8]
logP: 1.88

COMPOUND: O=c1[nH]nnc2nn(Cc3cccc(C(F)(F)F)c3)cc12 [Compound 6]
logP: 2.02

COMPOUND: O=c1[nH]nnc2nn(Cc3cccc(Cl)c3)cc12 [Compound 5]
logP: 1.83

COMPOUND: O=c1[nH]nnc2nn(Cc3c(F)cccc3Cl)cc12 [Compound 9]
logP: 1.38

Field request: logP | item: O=c1[nH]nnc2nn(Cc3ccc(F)cc3)cc12 [Compound 7]
1.28

What would you report for O=c1[nH]nnc2nn(Cc3ccccc3Cl)cc12 [Compound 2] ?
0.82

Origin of values: patent US6316448A
